# Test system: HCV 1b-377-neo replicon cells
# EXPERIMENT DESCRIPTION: HCV replicon FRET assay
# Type: cell-based
# RECORDED CONDITIONS: Hepatitis C virus; HCV replicon; read-out: Activity (EC50)
ENDPOINT: EC50

Consider the following illustrative entries.
{"columns": ["MOLECULE", "STUDY TARGET", "EC50"],
 "data": [
  ["O=C(Nc1ccc(/C=C/c2ccc(NC(=O)[C@@H]3CCCN3C(=O)c3ncccc3-c3ccc(Cl)cc3)cc2)cc1)[C@@H]1CCCN1C(=O)c1ncccc1-c1ccc(Cl)cc1", "HCV 1b-377-neo replicon cells", "100 to 1000 nM"],
  ["O=C(Nc1ccc(/C=C/c2ccc(NC(=O)[C@@H]3CCCN3C(=O)Cc3ccccc3)c(F)c2)cc1F)[C@@H]1CCCN1C(=O)Cc1ccccc1", "HCV 1b-377-neo replicon cells", "0.1 to 90 nM"],
  ["CN(C)[C@H]1C[C@@H](C(=O)Nc2ccc(/C=C/c3ccc(NC(=O)[C@@H]4C[C@H](N(C)C)CN4C(=O)OCc4ccccc4)cc3)cc2)N(C(=O)OCc2ccccc2)C1", "HCV 1b-377-neo replicon cells", "0.1 to 90 nM"]
]}

Fill in the blank: the reported EC50 of O=C(Nc1ccc(/C=C/c2ccc(NC(=O)[C@@H]3CCCN3C(=O)C3CC(=O)N(Cc4cccs4)C3)cc2)cc1)[C@@H]1CCCN1C(=O)C1CC(=O)N(Cc2cccs2)C1 (stereo partly drawn) is ____.
1000 to 10000 nM

Consider next the molecule O=C(Nc1ccc(/C=C/c2ccc(NC(=O)[C@@H]3CCCN3C(=O)Cc3ccccc3)cc2)cc1)c1ccccc1Oc1ccccc1 in the same way.
1000 to 10000 nM

Consider next the molecule CC(C)C(=O)N1CCC[C@H]1C(=O)Nc1ccc(/C=C/c2ccc(NC(=O)[C@@H]3CCCN3C(=O)c3ccc(N(C)C)cc3)cc2)cc1 in the same way.
100 to 1000 nM
